Listing of entries alongside the reported HNF3β Expression, Fold over Wnt 3a/AA control.
Test system: HNF-3beta expression in human embryonic stem cells (H9 line)
PROTOCOL: High content screening assay: HNF-3beta protein expression (differentiation)
Assay type: cell-based
PROTOCOL_CONDITIONS: 10 μM test compound with 100 ng/ml activin A on days 1-2; H9; total intensity by IN Cell Analyzer; strong and moderate hits
PROPERTY_MEASURED: HNF3β Expression, Fold over Wnt 3a/AA control

>  <COMPOUND>
O=C1NC(=O)C2=C1c1cn(c3ccccc13)CCOCCOCCOCCn1cc2c2ccccc21

>  <REPORTED_VALUE>
3.1115 Fold over Wnt 3a/AA control

$$$$
>  <COMPOUND>
CCN1CCOCCn2cc(c3ccccc32)C2=C(C(=O)NC2=O)c2cn(c3ccccc23)CCOCC1

>  <REPORTED_VALUE>
0.8807 Fold over Wnt 3a/AA control

$$$$
>  <COMPOUND>
O=C1NC(=O)C2=C1c1cn(c3ncccc13)CCOCCOCCOCCOCCn1cc2c2cccnc21 [Compound 169]

>  <REPORTED_VALUE>
0.9520 Fold over Wnt 3a/AA control

$$$$
>  <COMPOUND>
O=C1CCCCn2cc(c3cccnc32)C2=C(C(=O)NC2=O)c2cn(c3ncccc23)CCCC1

>  <REPORTED_VALUE>
0.5866 Fold over Wnt 3a/AA control

$$$$
>  <COMPOUND>
O=C1NC(=O)C2=C1c1cn(c3ncccc13)CCOCCOCCOCCn1cc2c2cccnc21 [Compound 2]

>  <REPORTED_VALUE>
1.0087 Fold over Wnt 3a/AA control

$$$$
>  <COMPOUND>
COCCN1CCOCCn2cc(c3ccccc32)C2=C(C(=O)NC2=O)c2nn(c3ccccc23)CCOCC1

>  <REPORTED_VALUE>
0.6803 Fold over Wnt 3a/AA control

$$$$
>  <COMPOUND>
O=C1NC(=O)C(c2nn(CCCO)c3ccccc23)=C1c1cn(-c2ccc3ccccc3c2)c2ccccc12

>  <REPORTED_VALUE>
0.7104 Fold over Wnt 3a/AA control

$$$$
>  <COMPOUND>
O=C1NC(=O)C2=C1c1cn(c3ncccc13)CCOCCOCCOCCn1cc2c2cccnc21 [Compound 167]

>  <REPORTED_VALUE>
0.9515 Fold over Wnt 3a/AA control

$$$$
>  <COMPOUND>
O=C1NC(=O)C2=C1c1cn(c3ncccc13)CCOCCOCCOCCOCCn1cc2c2cccnc21 [Compound 6]

>  <REPORTED_VALUE>
1.3832 Fold over Wnt 3a/AA control

$$$$
>  <COMPOUND>
O=C1NC(=O)C2=C1c1cn(c3ccccc13)CCOCCOCCOCCOCCn1cc2c2ccccc21

>  <REPORTED_VALUE>
5.4668 Fold over Wnt 3a/AA control

$$$$

###

Test system: cells expressing pluripotency markers derived from human embryonic stem cells
PROTOCOL: MTS viability (toxicity) assay of cells expressing pluripotency markers
Assay type: cell-based
PROTOCOL_CONDITIONS: cmpd conc 2.5 μM; MTS on day 4; relative to Activin A + Wnt3a positive control
PROPERTY_MEASURED: % Control (percentage viability of control) (%)

>  <LINE_NOTATION>
CCN1CCOCCOCCn2cc(c3ccccc32)C2=C(C(=O)NC2=O)c2cn(c3ccccc23)CC1

>  <ENDPOINT_UNIT>
%

>  <REPORTED_VALUE>
51.4

$$$$
>  <LINE_NOTATION>
O=C1NC(=O)C2=C1c1cn(c3ccccc13)CCOCCOCCN(Cc1cccc3ccccc13)CCn1cc2c2ccccc21

>  <ENDPOINT_UNIT>
%

>  <REPORTED_VALUE>
99.6

$$$$
>  <LINE_NOTATION>
CN1CCOCCOCCN(C)CCn2cc(c3ccccc32)C2=C(C(=O)NC2=O)c2cn(c3ccccc23)CC1

>  <ENDPOINT_UNIT>
%

>  <REPORTED_VALUE>
101.9

$$$$
>  <LINE_NOTATION>
O=C1NC(=O)C2=C1c1cn(c3ccccc13)CCOCCOCCN(Cc1cccs1)CCn1cc2c2ccccc21

>  <ENDPOINT_UNIT>
%

>  <REPORTED_VALUE>
92.8

$$$$
>  <LINE_NOTATION>
CN1CCN(C)CCn2cc(c3ccccc32)C2=C(C(=O)NC2=O)c2cn(c3ccccc23)CC1

>  <ENDPOINT_UNIT>
%

>  <REPORTED_VALUE>
102.9

$$$$

###

Test system: human embryonic stem cell line H1
PROTOCOL: Dose titration secondary assay: cell number, H1
Format: cell-based
PROTOCOL_CONDITIONS: Conc 5 μM, positive control (Wnt3a/Activin A) normalized to 1.000
PROPERTY_MEASURED: Cell number

>  <COMPOUND>
O=C1NC(=O)C2=C1c1cn(c3ccccc13)CCOCCOCCN(Cc1cccs1)CCn1cc2c2ccccc21 [Compound 133]

>  <PROPERTY_MEASURED>
Cell number

>  <REPORTED_VALUE>
0.262

$$$$
>  <COMPOUND>
CN1CCN(C)CCn2cc(c3ccccc32)C2=C(C(=O)NC2=O)c2cn(c3ccccc23)CC1 [Compound 111]

>  <PROPERTY_MEASURED>
Cell number

>  <REPORTED_VALUE>
1.128

$$$$
>  <COMPOUND>
CN1CCOCCOCCN(C)CCn2cc(c3ccccc32)C2=C(C(=O)NC2=O)c2cn(c3ccccc23)CC1 [Compound 112]

>  <PROPERTY_MEASURED>
Cell number

>  <REPORTED_VALUE>
0.908

$$$$
>  <COMPOUND>
CCN1CCOCCOCCn2cc(c3ccccc32)C2=C(C(=O)NC2=O)c2cn(c3ccccc23)CC1 [Compound 103]

>  <PROPERTY_MEASURED>
Cell number

>  <REPORTED_VALUE>
0.034

$$$$
>  <COMPOUND>
O=C1NC(=O)C2=C1c1cn(c3ccccc13)CCOCCOCCN(Cc1cccc3ccccc13)CCn1cc2c2ccccc21 [Compound 136]

>  <PROPERTY_MEASURED>
Cell number

>  <REPORTED_VALUE>
0.173

$$$$

###

Listing of entries alongside the reported Cell number.
Test system: human embryonic stem cell line H9
PROTOCOL: Dose titration secondary assay: cell number, H9
Format: cell-based
PROTOCOL_CONDITIONS: 5 μM compound

>  <LINE_NOTATION>
CN1CCOCCOCCN(C)CCn2cc(c3ccccc32)C2=C(C(=O)NC2=O)c2cn(c3ccccc23)CC1

>  <Cell number>
1.281

$$$$
>  <LINE_NOTATION>
CN1CCN(C)CCn2cc(c3ccccc32)C2=C(C(=O)NC2=O)c2cn(c3ccccc23)CC1

>  <Cell number>
0.793

$$$$
>  <LINE_NOTATION>
CCN1CCOCCOCCn2cc(c3ccccc32)C2=C(C(=O)NC2=O)c2cn(c3ccccc23)CC1

>  <Cell number>
0.023

$$$$
>  <LINE_NOTATION>
O=C1NC(=O)C2=C1c1cn(c3ccccc13)CCOCCOCCN(Cc1cccs1)CCn1cc2c2ccccc21

>  <Cell number>
1.067

$$$$
>  <LINE_NOTATION>
O=C1NC(=O)C2=C1c1cn(c3ccccc13)CCOCCOCCN(Cc1cccc3ccccc13)CCn1cc2c2ccccc21

>  <Cell number>
0.320

$$$$

###

Tested on: cells expressing pluripotency markers derived from human embryonic stem cells
PROTOCOL: MTS viability (toxicity) assay of cells expressing pluripotency markers
Type: cell-based
PROTOCOL_CONDITIONS: MTS viability assay raw reading, replicate 2
Lab note: anything with Raw data (duplicate), second replicate below 0.7 is marked yes; values at 0.7 or higher are marked no.

>  <COMPOUND>
Cn1cc(C2=C(c3nn(CCCn4ccnc4)c4ccccc34)C(=O)NC2=O)c2cc(Cl)ccc21

>  <EXPERIMENTAL_TARGET>
cells expressing pluripotency markers derived from human embryonic stem cells

>  <LABEL_CLASS>
yes

$$$$
>  <COMPOUND>
O=C1NC(=O)C(c2cn(-c3cncnc3)c3ccccc23)=C1c1cn(CCO)c2ccccc12

>  <EXPERIMENTAL_TARGET>
cells expressing pluripotency markers derived from human embryonic stem cells

>  <LABEL_CLASS>
yes

$$$$
>  <COMPOUND>
O=C1NC(=O)C(c2cn(CCCO)c3ncccc23)=C1c1cn(CCO)cn1

>  <EXPERIMENTAL_TARGET>
cells expressing pluripotency markers derived from human embryonic stem cells

>  <LABEL_CLASS>
yes

$$$$
>  <COMPOUND>
O=C1NC(=O)C(c2cn(CCOCCOCCNC3CCCc4ccccc43)c3ccccc23)=C1c1cn(CCNC2CCCc3ccccc32)c2ccccc12 (stereo not shown)

>  <EXPERIMENTAL_TARGET>
cells expressing pluripotency markers derived from human embryonic stem cells

>  <LABEL_CLASS>
no

$$$$
>  <COMPOUND>
O=C1NC(=O)C(c2nn(CCCO)c3ccccc23)=C1c1cn(-c2cccnc2)c2ccc(Cl)cc12

>  <EXPERIMENTAL_TARGET>
cells expressing pluripotency markers derived from human embryonic stem cells

>  <LABEL_CLASS>
no

$$$$
>  <COMPOUND>
O=C1NC(=O)C2=C1c1cn(c3ncccc13)CCOCCOCCOCCn1cc2c2cccnc21 [Compound 167]

>  <EXPERIMENTAL_TARGET>
cells expressing pluripotency markers derived from human embryonic stem cells

>  <LABEL_CLASS>
no

$$$$
>  <COMPOUND>
O=C1NC(=O)C(c2nn(CCCO)c3ccccc23)=C1c1cn(C2CCOCC2)c2ccccc12

>  <EXPERIMENTAL_TARGET>
cells expressing pluripotency markers derived from human embryonic stem cells

>  <LABEL_CLASS>
yes

$$$$
>  <COMPOUND>
CN(C)CCCn1cc(C2=C(c3ccccc3Cl)C(=O)NC2=O)c2cccnc21

>  <EXPERIMENTAL_TARGET>
cells expressing pluripotency markers derived from human embryonic stem cells

>  <LABEL_CLASS>
yes

$$$$
>  <COMPOUND>
O=C1NC(=O)C(c2nn(CCCO)c3ccccc23)=C1c1cn(-c2ccc3ccccc3c2)c2ccccc12

>  <EXPERIMENTAL_TARGET>
cells expressing pluripotency markers derived from human embryonic stem cells

>  <LABEL_CLASS>
no

$$$$
>  <COMPOUND>
O=C1NC(=O)C(c2cn(CCOCCOCCO)c3ccccc23)=C1c1cn(CCO)c2ccccc12

>  <EXPERIMENTAL_TARGET>
cells expressing pluripotency markers derived from human embryonic stem cells

>  <LABEL_CLASS>
no

$$$$
>  <COMPOUND>
CCN1CCOCCOCCn2cc(c3ccccc32)C2=C(C(=O)NC2=O)c2cn(c3ccccc23)CC1

>  <EXPERIMENTAL_TARGET>
cells expressing pluripotency markers derived from human embryonic stem cells

>  <LABEL_CLASS>
yes

$$$$
>  <COMPOUND>
NCCCn1nc(C2=C(c3cn(-c4csc5ccccc45)c4ccccc34)C(=O)NC2=O)c2ccccc21

>  <EXPERIMENTAL_TARGET>
cells expressing pluripotency markers derived from human embryonic stem cells

>  <LABEL_CLASS>
yes

$$$$
>  <COMPOUND>
CN(C)CCCn1cc(C2=C(c3cccc4ccccc34)C(=O)NC2=O)c2cccnc21

>  <EXPERIMENTAL_TARGET>
cells expressing pluripotency markers derived from human embryonic stem cells

>  <LABEL_CLASS>
yes

$$$$
>  <COMPOUND>
O=C1NC(=O)C(c2cn(CCCO)c3ncccc23)=C1c1ccccc1C(F)(F)F

>  <EXPERIMENTAL_TARGET>
cells expressing pluripotency markers derived from human embryonic stem cells

>  <LABEL_CLASS>
yes

$$$$
